Sourced from PubChem BioAssay AID1159580

test: chemical genetic growth profiling, strain panel (AID 1159580);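 further: tested at 20 µM; growth read once vehicle control cultures reached saturation at 30 °C; 1 = growth at the plate median or of vehicle wells; lower values mean less growth of the strain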; conditions: S. cerevisiae deletion strains, growth OD, locus YFR010W, strain ubp6, active compounds read low
Hit rate of the full screen: of about 5,500 compounds, about 2,000 (36%) were called active. Inconclusive results (about 18%) are left out. The list shows a part of the results.
Reported values of normalized growth for individual entries
QUANTITY: normalized growth

                                   molecule  recorded_measurement
0                     COc1c2ccccc2nc2occc12                 0.919
1  C[C@]12C=CC(=O)C=C1CCC1C3C[C@@H](O)[C@](O)(C(=O)CO)[C@@]3(C)C[C@H](O)[C@@]12F (stereo not given in full)                     1
2  OC[C@H]1OC([S-])[C@H](O)[C@@H](O)[C@@H]1O.[Au+] (stereo not given in full)                  1.02
3  NC(=O)c1ncn(C2O[C@H](CO)[C@@H](O)[C@H]2O)c1N (stereo not given in full)                  1.04
4  N[C@@H]1[C@@H](O)[C@H](O)[C@@H](CO)O[C@H]1O                  1.01
